B1: Azoarcus group I ribozyme (parent)
chain: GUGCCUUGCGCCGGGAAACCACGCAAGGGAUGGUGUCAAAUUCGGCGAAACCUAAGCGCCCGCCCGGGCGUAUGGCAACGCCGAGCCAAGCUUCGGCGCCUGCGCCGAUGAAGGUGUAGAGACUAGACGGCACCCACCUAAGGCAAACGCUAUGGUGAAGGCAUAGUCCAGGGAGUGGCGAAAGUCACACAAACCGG

Variants of: B1
measurement description: reverse-splicing fitness (ratio to wild type); higher = more active; in vitro selection; Mg2+ level not given
Label YES when reverse-splicing fitness is at or above 0.007; otherwise label NO.

{"variant identifier": "C82A A111G A145G C150A", "qualitative label": "YES"}
{"variant identifier": "C82A C150A C169U", "qualitative label": "YES"}
{"variant identifier": "A111U A120U A145C C150G C169G U176G", "qualitative label": "NO"}
{"variant identifier": "C82A A111G A120C A145G C150G C169G U176G", "qualitative label": "NO"}
{"variant identifier": "C82A A111G A120G A145C C150G C169A U176C", "qualitative label": "YES"}
{"variant identifier": "C82A A111U A120C C150A", "qualitative label": "YES"}
{"variant identifier": "C82G C150U C169G U176G", "qualitative label": "NO"}
{"variant identifier": "C82G A111C A145C C150U C169U U176C", "qualitative label": "YES"}
{"variant identifier": "C82A A120U A145U C150G C169G U176G", "qualitative label": "NO"}
{"variant identifier": "C82A A111U A145C C150G C169U U176C", "qualitative label": "YES"}
{"variant identifier": "C82G A111C A120G A145G C169A U176A", "qualitative label": "YES"}
{"variant identifier": "C82G A111U A120U A145G C150G C169G U176G", "qualitative label": "NO"}
{"variant identifier": "C82A A111C A120G A145C C150U C169U", "qualitative label": "NO"}
{"variant identifier": "A120C A145G C150A C169A U176G", "qualitative label": "NO"}
{"variant identifier": "C82A A111G A120G A145U C169U", "qualitative label": "YES"}
{"variant identifier": "A111U A120C A145U C150A C169A", "qualitative label": "YES"}
{"variant identifier": "C82G A111U A120U A145U C150A", "qualitative label": "YES"}
{"variant identifier": "A120G A145G C150A C169A U176C", "qualitative label": "YES"}
{"variant identifier": "A111U A120C A145C C150U C169U U176A", "qualitative label": "YES"}
{"variant identifier": "C82G A111C C169U U176C", "qualitative label": "YES"}
{"variant identifier": "C82A A111U A120U A145G C150U U176G", "qualitative label": "NO"}
{"variant identifier": "C82A A111C A120G A145G C150G U176G", "qualitative label": "NO"}
{"variant identifier": "A111G A120G A145U C150G C169G U176G", "qualitative label": "NO"}
{"variant identifier": "C82G A111U A120C C150A C169G", "qualitative label": "YES"}
{"variant identifier": "C82G A111G A120C A145G C169G", "qualitative label": "YES"}
{"variant identifier": "C82U A120U C169U", "qualitative label": "YES"}
{"variant identifier": "C82G A111U U176G", "qualitative label": "YES"}
{"variant identifier": "C82G A111C A120U A145U C169U U176A", "qualitative label": "NO"}
{"variant identifier": "C82A A111G A120U C150A U176A", "qualitative label": "NO"}
{"variant identifier": "C82G A111C A120U A145C C169A U176A", "qualitative label": "NO"}
{"variant identifier": "A111C A120C A145C U176G", "qualitative label": "YES"}
{"variant identifier": "A111G A145U C169A U176A", "qualitative label": "YES"}
{"variant identifier": "C82U A111U A120U A145C C150A U176G", "qualitative label": "NO"}
{"variant identifier": "C82A A145U C150U C169U U176C", "qualitative label": "YES"}
{"variant identifier": "A120C A145C U176C", "qualitative label": "YES"}
{"variant identifier": "C82A A111U A120G C150G C169A U176G", "qualitative label": "NO"}
{"variant identifier": "C82G C150U U176G", "qualitative label": "YES"}
{"variant identifier": "C82A A120U A145G C150A C169A", "qualitative label": "NO"}
{"variant identifier": "C82G A111C A120C C150U C169U U176A", "qualitative label": "YES"}
{"variant identifier": "C82U A111G A145U C169G U176C", "qualitative label": "YES"}
{"variant identifier": "C82A A111U A120C C150G U176G", "qualitative label": "NO"}
{"variant identifier": "C82G A111G A120U A145G C150A", "qualitative label": "YES"}
{"variant identifier": "C82A A111C A120G A145G C150A C169G U176A", "qualitative label": "YES"}
{"variant identifier": "A120G A145C C150A C169G U176G", "qualitative label": "NO"}
{"variant identifier": "C82U A111C A120U C169U U176C", "qualitative label": "NO"}
